Tested on: 996289-038-R-J1-PDC spheroid viability;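 further: spheroids exposed to compounds for seven days before viability read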
assay-overview: Anticancer human tumor 996289-038-R-J1-PDC patient-derived colon adenocarcinoma cell line growth inhibition [PI3K]
condition-parameters: curve of first compound; second compound 0.316 µM; spheroids with HUVEC and MSC
# IC50 per record follows

Worked set:
>  <compound>
CC1(C)CCC(CN2CCN(c3ccc(C(=O)NS(=O)(=O)c4ccc(NCC5CCOCC5)c([N+](=O)[O-])c4)c(Oc4cnc5[nH]ccc5c4)c3)CC2)=C(c2ccc(Cl)cc2)C1 + CC(Nc1ncnc2nc[nH]c12)c1cc2cccc(Cl)c2c(=O)n1-c1ccccc1

>  <IC50>
> 10000 nM

$$$$
>  <compound>
C=CC(=O)N1CCN(c2nc(=O)n(-c3c(C)ccnc3C(C)C)c3nc(-c4c(O)cccc4F)c(F)cc23)C(C)C1 (stereo not given) + Cc1nc(NC(=O)N2CCCC2C(N)=O)sc1-c1ccnc(C(C)(C)C(F)(F)F)c1

>  <IC50>
> 10000 nM

$$$$
>  <compound>
CC1(C)CCC(Nc2ncc(C(F)(F)F)c(-c3c[nH]c4c(P(C)(C)=O)c(C#N)ccc34)n2)CN1 (stereo not given) + COc1c(OCCCN2CCOCC2)ccc2c3n(c(=NC(=O)c4cnc(N)nc4)nc12)CCN3

>  <IC50>
< 31.6 nM

$$$$
>  <compound>
Cn1ncnc1[C@H]1c2n[nH]c(=O)c3cc(F)cc(c23)N[C@@H]1c1ccc(F)cc1 + Cc1nc(NC(=O)N2CCCC2C(N)=O)sc1-c1ccnc(C(C)(C)C(F)(F)F)c1

>  <IC50>
> 100 nM

$$$$
>  <compound>
CC(Cn1ccc(-c2ccc(C#N)c(Cl)c2)n1)NC(=O)c1cc(C(C)O)[nH]n1 (stereo not given) + Cc1nc(NC(=O)N2CCCC2C(N)=O)sc1-c1ccnc(C(C)(C)C(F)(F)F)c1

>  <IC50>
> 10000 nM

$$$$
>  <compound>
CCN1CCN(Cc2ccc(Nc3ncc(F)c(-c4cc(F)c5nc(C)n(C(C)C)c5c4)n3)nc2)CC1 + COc1c(OCCCN2CCOCC2)ccc2c3n(c(=NC(=O)c4cnc(N)nc4)nc12)CCN3

>  <IC50>
< 3.16 nM

$$$$
>  <compound>
CCN1CCN(Cc2ccc(Nc3ncc(F)c(-c4cc(F)c5nc(C)n(C(C)C)c5c4)n3)nc2)CC1 + CC(Nc1ncnc2nc[nH]c12)c1cc2cccc(Cl)c2c(=O)n1-c1ccccc1

>  <IC50>
> 1000 nM

$$$$
>  <compound>
C[C@@H](NC(=O)c1ncnc(N)c1Cl)c1ncc(C(=O)Nc2cc(C(F)(F)F)c(Cl)cn2)s1 + Cc1nc(NC(=O)N2CCCC2C(N)=O)sc1-c1ccnc(C(C)(C)C(F)(F)F)c1

>  <IC50>
> 10000 nM

$$$$
>  <compound>
Cn1ncc(Cl)c1-c1cc(C(=O)NC(CN)Cc2cccc(F)c2)sc1Cl (stereo not given) + COc1c(OCCCN2CCOCC2)ccc2c3n(c(=NC(=O)c4cnc(N)nc4)nc12)CCN3

>  <IC50>
< 31.6 nM

$$$$
>  <compound>
C#Cc1c(F)ccc2cc(O)cc(-c3ncc4c(N5CC6CCC(C5)N6)nc(OCC56CCCN5CC(F)C6)nc4c3F)c12 (stereo not given) + CC(Nc1ncnc2nc[nH]c12)c1cc2cccc(Cl)c2c(=O)n1-c1ccccc1

>  <IC50>
1430 nM

$$$$

IN: Find IC50 for CNC(=O)c1ccc(N2C(=S)N(c3ccc(C#N)c(C(F)(F)F)c3)C(=O)C2(C)C)cc1F + CC(Nc1ccc2c(c1)OCCn1cc(N3C(=O)OCC3C(F)F)nc1-2)C(N)=O on 996289-038-R-J1-PDC spheroid viability and write it down.
OUT: > 10000 nM

IN: Find IC50 for C[C@@H](NC(=O)c1ncnc(N)c1Cl)c1ncc(C(=O)Nc2cc(C(F)(F)F)c(Cl)cn2)s1 + CC(Nc1ncnc2nc[nH]c12)c1cc2cccc(Cl)c2c(=O)n1-c1ccccc1 on 996289-038-R-J1-PDC spheroid viability and write it down.
OUT: > 10000 nM

IN: Find IC50 for Cn1cnc2c(F)c(Nc3ccc(Br)cc3Cl)c(C(=O)NOCCO)cc21 + CC(Nc1ncnc2nc[nH]c12)c1cc2cccc(Cl)c2c(=O)n1-c1ccccc1 on 996289-038-R-J1-PDC spheroid viability and write it down.
OUT: 225 nM

IN: Find IC50 for Cn1ncnc1[C@H]1c2n[nH]c(=O)c3cc(F)cc(c23)N[C@@H]1c1ccc(F)cc1 + COc1c(OCCCN2CCOCC2)ccc2c3n(c(=NC(=O)c4cnc(N)nc4)nc12)CCN3 on 996289-038-R-J1-PDC spheroid viability and write it down.
OUT: < 0.316 nM

IN: Find IC50 for CC(C)n1nc(-c2ccc3oc(N)nc3c2)c2c(N)ncnc21 + CC(Nc1ncnc2nc[nH]c12)c1cc2cccc(Cl)c2c(=O)n1-c1ccccc1 on 996289-038-R-J1-PDC spheroid viability and write it down.
OUT: 64.9 nM

Reference for the values: PubChem BioAssay AID1963965
